Tested on: CCRF-CEM leukemia
test-description: NCI-60 one-dose screen, 48 h (100 = growth as untreated, 0 = no growth, -100 = all killed)
test-context: 10 µM unless noted
The panel holds about 83,000 compounds, 20% with a hit somewhere; the sample as a whole holds those more often.

{"compound-string": "COc1ccc(/C=C/c2nc3ccccc3n3c(-c4ccc(Cl)cc4)nnc23)cc1", "growth [%]": 78.1}
{"compound-string": "Cc1ccc2c(c1)nc(-c1ccccc1)n2CC(=O)N=Nc1c(O)[nH]c2ccc(Br)cc12", "growth [%]": 23.8}
{"compound-string": "CCN(CC)C(=O)N/C(N)=N/c1nc2ccccc2s1", "growth [%]": 41.9}
{"compound-string": "Clc1cccc(N/N=C/c2c[nH]c3ccc(Br)cc23)n1", "growth [%]": -14.8}
{"compound-string": "O=C(O)c1ccc(-c2ccc(/C=N/NC(=O)c3[nH]c4ccc(Br)cc4c3-c3ccccc3)o2)cc1", "growth [%]": -0.481}

###

System: CCRF-CEM leukemia
test-description: NCI-60 one-dose screen, 48 h
test-context: 10 µM unless noted
Compounds without any hit were thinned out: in the full panel of roughly 83,000, 20% have a hit. Calls of active or inactive are those of the source. Rule for the calls: active = growth percent below 10; inactive = the rest.
Outcomes: active, inactive

{"compound": "O=C(COc1ccc(NC(=O)Nc2ccc(Cl)c(Cl)c2)cc1)N=Nc1c(O)[nH]c2ccc([N+](=O)[O-])cc12", "system-tested": "CCRF-CEM leukemia", "group-label": "inactive"}
{"compound": "CCN(CC)c1ccnc(CNCCSC(c2ccccc2)(c2ccccc2)c2ccc(OC)cc2)c1", "system-tested": "CCRF-CEM leukemia", "group-label": "active"}
{"compound": "CC1=C(C#N)C2=NNCC(c3ccccc3)=NN2C(c2ccccc2)=C1", "system-tested": "CCRF-CEM leukemia", "group-label": "inactive"}
{"compound": "O=C(/C=C/c1ccc(-c2ccccc2)cc1)c1nc2ccccc2n1Cc1ccc(Br)cc1", "system-tested": "CCRF-CEM leukemia", "group-label": "inactive"}
{"compound": "COc1ccc(NC(=O)c2sc3nc(C(C)C)ccc3c2N)cc1", "system-tested": "CCRF-CEM leukemia", "group-label": "inactive"}
{"compound": "COc1ccc(-c2nc3cc(C)ccc3n2CC(=O)N=Nc2c(O)[nH]c3ccc(OC)cc23)cc1", "system-tested": "CCRF-CEM leukemia", "group-label": "inactive"}
{"compound": "N=C1N=C(SCc2nc3ccccc3[nH]2)NC(=O)/C1=C/c1ccc(Cl)cc1", "system-tested": "CCRF-CEM leukemia", "group-label": "inactive"}
{"compound": "CC12CC[C@@H]3[C@]4(C)COC(c5cn[nH]c5-c5cccc(Br)c5)O[C@@H]4CC[C@@]3(C)[C@@H]1CC(C1=CCOC1=O)O2 (some centres undefined)", "system-tested": "CCRF-CEM leukemia", "group-label": "active"}
{"compound": "N/N=C(\\N)c1c(N)nc(=S)[nH]c1-c1ccc(Cl)cc1Cl", "system-tested": "CCRF-CEM leukemia", "group-label": "inactive"}
{"compound": "c1ccc(-c2csc(Nc3cccc(Nc4nc(-c5ccccc5)cs4)c3)n2)cc1", "system-tested": "CCRF-CEM leukemia", "group-label": "inactive"}
{"compound": "O=C(c1ccccc1)c1ccc2nc(-c3cccc(Cl)c3)[nH]c2c1", "system-tested": "CCRF-CEM leukemia", "group-label": "inactive"}
{"compound": "COc1ccc(/C=C2\\C(=N)N=C(SCc3nc4ccccc4[nH]3)NC2=O)cc1", "system-tested": "CCRF-CEM leukemia", "group-label": "inactive"}
{"compound": "COc1ccc(-c2nnc3ccc(N/N=C/c4ccc(O)cc4)nn23)cc1", "system-tested": "CCRF-CEM leukemia", "group-label": "inactive"}
{"compound": "NS(=O)(=O)c1ccc(-n2cc(-c3cccc(NC(=O)c4cc(N5CCOCC5)cc(C(F)(F)F)c4)c3)nn2)cc1", "system-tested": "CCRF-CEM leukemia", "group-label": "inactive"}
{"compound": "COc1ccc(/C=C/c2nc3ccccc3c(=O)n2CC(=O)Nc2ccc(Cl)cc2)cc1", "system-tested": "CCRF-CEM leukemia", "group-label": "inactive"}
{"compound": "CC(=O)N1CCN(Cc2ccc3c(NNC(=O)c4cnccn4)nc4cc(F)ccc4n23)CC1", "system-tested": "CCRF-CEM leukemia", "group-label": "active"}
{"compound": "CC1(C)CC[C@]2(C(=O)Nc3ccccc3)CC[C@]3(C)C(=CCC4[C@@]5(C)C[C@@H](O)[C@H](O)[C@@](C)(CO)C5CC[C@]43C)C2C1 (some centres undefined)", "system-tested": "CCRF-CEM leukemia", "group-label": "inactive"}
{"compound": "COc1cc2oc(-c3cccc(NC(=O)[C@H](CC(N)=O)NC(=O)OC(C)(C)C)c3)cc(=O)c2c(OC)c1OC", "system-tested": "CCRF-CEM leukemia", "group-label": "inactive"}
{"compound": "O=C(COc1ccc2c(c1)CCCC(=O)N2)NCc1ccccc1", "system-tested": "CCRF-CEM leukemia", "group-label": "inactive"}

###

Tested on: SW-620 colon
test-description: NCI-60 one-dose screen, 48 h (100 = growth as untreated, 0 = no growth, -100 = all killed)
test-context: 10 µM unless noted
About 83,000 compounds went through this panel and 20% of them were active in at least one assay; those are over-represented in the sample as a whole. The source made the active and inactive calls. How the source made its calls: active means growth percent below 10; inactive means the rest.

{"compound": "CN(C)c1nc(NCCNS(=O)(=O)c2ccc(C3=Nc4c(N)nc(N)nc4NC(c4ccc(Cl)cc4)C3)cc2)nc(Nc2ccc(F)cc2)n1 (stereo not drawn)", "system-tested": "SW-620 colon", "growth": "33.4% (inactive)"}
{"compound": "CC(=O)Nc1ccc(-n2cnc3ccc(-c4ccc(O)cc4)cc32)cc1", "system-tested": "SW-620 colon", "growth": "39.2% (inactive)"}
{"compound": "COc1cc(C2CC(c3cc(OC)c(OC)c(OC)c3)=Nc3c(N)nc(N)nc3N2)ccc1Oc1nc(NCCO)nc(N2CCOCC2)n1 (stereo not drawn)", "system-tested": "SW-620 colon", "growth": "103% (inactive)"}
{"compound": "COc1ccc(C(=O)/C=C/c2ccc(Oc3nc(Nc4ccc(F)cc4)nc(N(C)C)n3)c(OC)c2)cc1", "system-tested": "SW-620 colon", "growth": "12.4% (inactive)"}
{"compound": "COc1ccc(C2=NN(C(C)=O)C(c3ccc(OCc4ccc(Cl)cc4)c(OC)c3)C2)cc1OC (stereo not drawn)", "system-tested": "SW-620 colon", "growth": "61.2% (inactive)"}
{"compound": "CCN(CC)CCOc1ccc(Nc2ncc3cc(-c4ccc(O)c(C#N)c4)c(=O)n(C)c3n2)cc1", "system-tested": "SW-620 colon", "growth": "110% (inactive)"}
{"compound": "CCN(CC)c1ccc(/C=N/Nc2nc(-c3ccc(Br)cc3)cs2)c(O)c1", "system-tested": "SW-620 colon", "growth": "10.5% (inactive)"}
{"compound": "O=S(=O)(Nc1cccc(-n2cnc3cc(-c4ccc(O)cc4)ccc32)c1)C1CC1", "system-tested": "SW-620 colon", "growth": "31.1% (inactive)"}

###

Tested on: UACC-62 melanoma
test-description: NCI-60 one-dose screen, 48 h
test-context: 10 µM unless noted
About 83,000 compounds went through this panel and 20% of them were active in at least one assay; those are over-represented in the sample as a whole. Calls of active or inactive are those of the source. Rule for the calls: active = growth percent below 10; inactive = the rest.
Outcomes: active, inactive

{"compound": "O=c1[nH]n(C(=S)N/N=C/c2ccccc2Cl)c(=O)c2ccccc12", "group-label": "active"}
{"compound": "Cc1ccccc1[C@H]1C(C(=O)c2ccc(Cl)cc2)C2(N[C@@H]1c1ccccc1)C(=O)Nc1ccccc12 (stereo partly specified)", "group-label": "active"}
{"compound": "CCN(CC)c1ccc(/C=N/Nc2nc(-c3ccc(Br)cc3)cs2)c(O)c1", "group-label": "inactive"}
{"compound": "COc1ccc2cc([C@H](C)C(=O)N/N=C/c3ccc(Br)cc3)ccc2c1", "group-label": "inactive"}
{"compound": "Cc1ccc2c(c1)nc(-c1ccccc1)n2CC(=O)N=Nc1c(O)[nH]c2ccc(Br)cc12", "group-label": "active"}
{"compound": "CC(=O)OC[C@@]1(C)C2CC[C@]3(C)C(CC=C4C5CC(C)(C)CC[C@]5(C(=O)Nc5ccc(F)cc5)CC[C@]43C)[C@@]2(C)C[C@@H](OC(C)=O)[C@@H]1OC(C)=O (stereo partly specified)", "group-label": "inactive"}
{"compound": "CCOP(=O)(OCCCl)c1nc(-c2ccc(C)cc2)oc1NCc1ccccc1 (stereo unspecified)", "group-label": "inactive"}
{"compound": "C#CCOc1cc(N(CC)CC)ccc1C(C(=O)NC(C)(C)C)N(C(=O)C1CCc2cc(F)ccc2O1)c1ccc(F)cc1 (stereo unspecified)", "group-label": "inactive"}
{"compound": "C[C@H]1CN(C(=O)c2ccc3c(NNC(=O)c4ccncn4)nc4cc(F)c(F)cc4n23)CCN1", "group-label": "active"}
{"compound": "COc1c(F)ccc(C(=O)Nc2ccc3nc(NC(=O)C4CCCN(S(=O)(=O)c5ccc(C#N)cc5)C4)sc3c2)c1F (stereo unspecified)", "group-label": "inactive"}
{"compound": "O=C1NC(=O)/C(=C/c2ccccc2OCc2cc3ccccc3nc2Cl)S1", "group-label": "inactive"}
{"compound": "CCCS(=O)(=O)N1CCCC(C(=O)Nc2nc3ccc(NC(=O)c4ccc(F)c(OC)c4F)cc3s2)C1 (stereo unspecified)", "group-label": "inactive"}
{"compound": "COc1ccc(-c2ccc(SCC(=O)NCCc3ccc(S(N)(=O)=O)cc3)nn2)cc1", "group-label": "inactive"}
{"compound": "CN(C)c1nc(NCCNS(=O)(=O)c2ccc(C3=Nc4c(N)nc(N)nc4NC(c4ccccc4)C3)cc2)nc(Nc2ccc(F)cc2)n1 (stereo unspecified)", "group-label": "inactive"}
{"compound": "COc1cc2c(c(OC)c1OC)C(=O)CC(c1cccc(NC(=O)c3cc(NC(=O)[C@H](CO)NC(=O)OC(C)(C)C)ccc3Cl)c1)O2 (stereo partly specified)", "group-label": "inactive"}
{"compound": "C(=C\\c1cc(/C=C/c2ccccc2)c2ccccc2n1)/c1ccccc1", "group-label": "inactive"}
{"compound": "COc1ccc(-c2c(Nn3cnnn3)no[n+]2[O-])cc1", "group-label": "inactive"}
{"compound": "O=C(COc1ccc2c(c1)CCCC(=O)N2)NCc1ccccc1", "group-label": "inactive"}
{"compound": "CC(C)CSc1nc(NCCc2c[nH]c3ccccc23)c(C#N)c(-c2ccc(Cl)cc2)n1", "group-label": "inactive"}
{"compound": "COc1ccc(-c2ccnc(SCc3cc4ccccc4[nH]c3=O)n2)cc1", "group-label": "inactive"}
{"compound": "CCCSc1nc(Nc2ccc(S(N)(=O)=O)cc2)c(C#N)c(-c2cc(OC)c(OC)c(OC)c2)n1", "group-label": "inactive"}
{"compound": "Cc1cc(C)cc(C(=O)Nc2cccc(-c3cn(-c4ccc(S(N)(=O)=O)cc4)nn3)c2)c1", "group-label": "inactive"}
{"compound": "C=C1CCC2C3(C)COC(c4ccc(F)cc4)OC3CCC2(C)C1C/C=C1/C(=O)OCC1O (stereo unspecified)", "group-label": "active"}
{"compound": "Cn1cc(-c2cc3nc(-c4c[nH]c5ccc(Cl)cc45)cc(N)n3n2)c2ccccc21", "group-label": "active"}
{"compound": "Cc1ccc(C(=O)NN2C(=O)/C(=C/C=C/c3ccc([N+](=O)[O-])o3)SC2=S)cc1", "group-label": "active"}
{"compound": "COc1ccc2[nH]cc(-c3nnc(N)nc3-c3c[nH]c4ncc(Br)cc34)c2c1", "group-label": "inactive"}
{"compound": "Brc1ccc(N/N=C/c2c[nH]c3ccc(Br)cc23)nc1", "group-label": "active"}
{"compound": "COc1ccc(NC(=O)[C@H](CO)NC(=O)OC(C)(C)C)cc1C(=O)Nc1cccc(C2CC(=O)c3c(cc(OC)c(OC)c3OC)O2)c1 (stereo partly specified)", "group-label": "inactive"}
{"compound": "CC(=O)NNc1ccc2nnc(-c3ccccc3)n2n1", "group-label": "inactive"}
{"compound": "CCOc1ccc(C(=O)NC(=S)Nc2ccc(S(N)(=O)=O)cc2)cc1", "group-label": "inactive"}
{"compound": "COc1cc(/C=C2\\C(=N)N=C(SCc3nc4ccccc4[nH]3)NC2=O)ccc1O", "group-label": "inactive"}
{"compound": "Cc1sc(C(NC(=O)OCCn2c([N+](=O)[O-])cnc2C)C(F)(F)Cl)nc1-c1ccc(OC(F)(F)F)cc1 (stereo unspecified)", "group-label": "active"}
{"compound": "CCCCSc1nc(NCCc2c[nH]c3ccccc23)c(C#N)c(-c2ccccc2)n1", "group-label": "inactive"}
{"compound": "Cc1cccc(NC(=O)[C@]23CCC(C)(C)CC2C2=CCC4[C@@]5(C)C[C@@H](O)[C@H](O)[C@@](C)(CO)C5CC[C@@]4(C)[C@]2(C)CC3)c1 (stereo partly specified)", "group-label": "inactive"}
{"compound": "C=C1CC[C@@H]2[C@]3(C)COC(c4ccco4)O[C@@H]3CC[C@@]2(C)[C@@H]1C/C=C1/C(=O)OCC1OC(C)=O (stereo partly specified)", "group-label": "inactive"}
{"compound": "O=C(COc1ccc(NC(=O)Nc2ccc(Cl)c(Cl)c2)cc1)N=Nc1c(O)[nH]c2ccccc12", "group-label": "active"}
